System: enzyme (SP-Sepharose HP fraction) derived from Sphingobacterium sp. strain FERM BP-8124
Format: biochemical
Settings: Table 15-2; carboxy component 100 mM, L-Gln 150 mM, 0.33 units enzyme, pH 9.0, 25° C., 1.5 hours
Source text: Substrate specificity was examined for enzyme derived from Sphingobacterium sp. strain FERM BP-8124 (Depositary institution: National Institute for Advanced Industrial Science and Technology, International Patent Organism Depositary, Address of depositary institution: Central. 6, 1-1-1 Higashi, Tsukuba City, Ibaraki Prefecture, Japan, International deposit date: Jul. 22, 2002). […]
Residues, ends and D or L forms follow the SMILES beside them.
Please go through the items and note down their Produced peptide.
Answers are plain numbers, in mM.

Example results:
                                   compound  recorded_value
0  CSCC[C@H](N)C(=O)N[C@@H](CCC(N)=O)C(=O)O [L-Met-L-Gln] (H-Met-Gln-OH)            32.6
1  NC(=O)CC[C@H](NC(=O)[C@@H](N)CCC(N)=O)C(=O)O [L-Gln-L-Gln] (H-Gln-Gln-OH)             0.1
2  NC(=O)CC[C@H](NC(=O)[C@@H]1CCCN1)C(=O)O [L-Pro-L-Gln] (H-Pro-Gln-OH)             1.8
3  CC(C)[C@H](N)C(=O)N[C@@H](CCC(N)=O)C(=O)O [L-Val-L-Gln] (H-Val-Gln-OH)             8.2
4  NC(=O)CC[C@H](NC(=O)[C@@H](N)CC(=O)O)C(=O)O [α-L-Asp-L-Gln] (H-Asp-Gln-OH)            0.05

Value sought for every listed compound: Produced peptide.
1. C[C@@H](O)[C@H](N)C(=O)N[C@@H](CCC(N)=O)C(=O)O [L-Thr-L-Gln] (H-Thr-Gln-OH)
2. NCC(=O)N[C@@H](CCC(N)=O)C(=O)O [Gly-L-Gln] (H-Gly-Gln-OH)
3. NC(=O)CC[C@H](NC(=O)[C@@H](N)CCCN=C(N)N)C(=O)O [L-Arg-L-Gln] (H-Arg-Gln-OH)

Response:
1. 36.1
2. 61.1
3. 17.2

###

Please go through the items and note down their Produced peptide.
Tested on: enzyme (SP-Sepharose HP fraction) derived from Sphingobacterium sp. strain FERM BP-8124
Type: biochemical
Details: Table 15-4; amides or methylamine as components; 100 mM / 150 mM, 0.33 units enzyme, pH 9.0, 25° C., 1.5 hours
Residues, ends and D or L forms follow the SMILES beside them.
Phrase the answer as number then unit, nothing more needed.

Example results:
                                 compound  recorded_value
0  C[C@H](N)C(=O)N[C@@H](Cc1ccccc1)C(N)=O         27.1 mM
1                               CNC(=O)CN          1.0 mM

Value sought for every listed compound: Produced peptide.
1. CNC(=O)[C@@H](N)[C@@H](C)O
2. C[C@H](N)C(=O)N[C@@H](C)C(N)=O [L-Ala-L-Ala-NH2] (H-Ala-Ala-NH2)
3. C[C@H](N)C(=O)NCC(N)=O [L-Ala-Gly-NH2] (H-Ala-Gly-NH2)
4. CNC(=O)C(C)N (stereo not shown)
5. C[C@H](N)C(=O)N[C@@H](CCC(N)=O)C(=O)O [L-Ala-L-Gln, L-alanyl-L-glutamine] (H-Ala-Gln-OH)

Response:
1. 0.3 mM
2. 9.2 mM
3. 15.1 mM
4. 0.6 mM
5. 0.3 mM

###

Tested on: peptide-producing enzyme (Mono S fraction) from Empedobacter brevis strain FERM BP-8113
Test: Enzyme substrate specificity (1)-(10), (13), (14)
Assay type: biochemical
Settings: 100 mM L-alanine methyl ester hydrochloride, L-amino acid 150 mM, pH 9.0, 25° C., 3 hours
Residues, ends and D or L forms follow the SMILES beside them.
I'd appreciate it if you could label each record using Produced peptide and these ranges: b0 = under 30 mM, b1 = from 30 mM up to 70 mM, b2 = 70 mM and over

Observe how each entry below is paired with its result.
>>> print(df.to_string())
                                   compound                                    target  assigned_label
0  C[C@H](N)C(=O)N[C@@H](Cc1ccc(O)cc1)C(=O)O [L-Ala-L-Tyr] (H-Ala-Tyr-OH)  peptide-producing enzyme (Mono S fraction) from Empedobacter brevis strain FERM BP-8113              b0
1  C[C@H](N)C(=O)N[C@@H](CCC(N)=O)C(=O)O [L-Ala-L-Gln, L-alanyl-L-glutamine] (H-Ala-Gln-OH)  peptide-producing enzyme (Mono S fraction) from Empedobacter brevis strain FERM BP-8113              b2
2  CSCC[C@H](NC(=O)[C@H](C)N)C(=O)O [L-Ala-L-Met] (H-Ala-Met-OH)  peptide-producing enzyme (Mono S fraction) from Empedobacter brevis strain FERM BP-8113              b2
3  C[C@H](N)C(=O)N[C@@H](Cc1c[nH]c2ccccc12)C(=O)O [L-Ala-L-Trp] (H-Ala-Trp-OH)  peptide-producing enzyme (Mono S fraction) from Empedobacter brevis strain FERM BP-8113              b1
4  C[C@H](N)C(=O)N[C@@H](CCC(=O)O)C(=O)O [L-Ala-L-Glu] (H-Ala-Glu-OH)  peptide-producing enzyme (Mono S fraction) from Empedobacter brevis strain FERM BP-8113              b1

Prompt: Assign a bin to C[C@H](N)C(=O)NCC(=O)O [L-Ala-Gly] (H-Ala-Gly-OH)
Response: b0

Prompt: Assign a bin to CC[C@H](C)[C@H](NC(=O)[C@H](C)N)C(=O)O [L-Ala-L-Ile] (H-Ala-Ile-OH)
Response: b1

Prompt: Assign a bin to C[C@H](N)C(=O)N[C@@H](Cc1ccccc1)C(=O)O
Response: b2

Prompt: Assign a bin to C[C@H](N)C(=O)N[C@@H](Cc1cnc[nH]1)C(=O)O [L-Ala-L-His] (H-Ala-His-OH)
Response: b1

###

Please go through the items and note down their Produced peptide.
Tested on: enzyme (SP-Sepharose HP fraction) derived from Sphingobacterium sp. strain FERM BP-8124
Format: biochemical
Conditions: Table 15-3; carboxy component 100 mM, amine component 150 mM, 0.33 units enzyme, pH 9.0, 25° C., 1.5 hours
Text: Substrate specificity was examined for enzyme derived from Sphingobacterium sp. strain FERM BP-8124 (Depositary institution: National Institute for Advanced Industrial Science and Technology, International Patent Organism Depositary, Address of depositary institution: Central. 6, 1-1-1 Higashi, Tsukuba City, Ibaraki Prefecture, Japan, International deposit date: Jul. 22, 2002). […]
Residues, ends and D or L forms follow the SMILES beside them.
Give bare numbers, in mM.

In [3]: df
Out[3]:
                                   molecule      test_readout  recorded_value
0  CC(C)[C@H](N)C(=O)N[C@@H](Cc1ccccc1)C(=O)O [L-Val-L-Phe] (H-Val-Phe-OH)  Produced peptide             1.0
1  CSCC[C@H](NC(=O)[C@@H](N)[C@@H](C)O)C(=O)O [L-Thr-L-Met] (H-Thr-Met-OH)  Produced peptide            28.9
2  CC(C)C[C@H](NC(=O)[C@@H](N)[C@@H](C)O)C(=O)O [L-Thr-L-Leu] (H-Thr-Leu-OH)  Produced peptide            15.3
3  NCC(=O)N[C@@H](Cc1cnc[nH]1)C(=O)O [Gly-L-His] (H-Gly-His-OH)  Produced peptide            36.2
4  CC[C@H](C)[C@H](N)C(=O)N[C@@H](CCSC)C(=O)O [L-Ile-L-Met] (H-Ile-Met-OH)  Produced peptide             5.1
5  NCCCC[C@H](NC(=O)CN)C(=O)O [Gly-L-Lys] (H-Gly-Lys-OH)  Produced peptide            48.2

Value sought for every listed molecule: Produced peptide.
1. CSCC[C@H](NC(=O)[C@@H](N)C(C)C)C(=O)O [L-Val-L-Met] (H-Val-Met-OH)
2. CC(C)[C@H](NC(=O)[C@@H](N)[C@@H](C)O)C(=O)O [L-Thr-L-Val] (H-Thr-Val-OH)
3. CC[C@H](C)[C@H](N)C(=O)N[C@@H](Cc1ccccc1)C(=O)O [L-Ile-L-Phe] (H-Ile-Phe-OH)
4. NCC(=O)N[C@@H](CCCN=C(N)N)C(=O)O [Gly-L-Arg] (H-Gly-Arg-OH)
5. CSCC[C@H](NC(=O)[C@@H](N)CO)C(=O)O [L-Ser-L-Met] (H-Ser-Met-OH)
6. CC[C@H](C)[C@H](N)C(=O)N[C@@H](CO)C(=O)O [L-Ile-L-Ser] (H-Ile-Ser-OH)
7. CSCC[C@H](N)C(=O)N[C@@H](CO)C(=O)O [L-Met-L-Ser] (H-Met-Ser-OH)
8. CSCC[C@H](NC(=O)[C@@H](N)CCSC)C(=O)O [L-Met-L-Met] (H-Met-Met-OH)

Response:
6.8
1.3
1.5
17.9
7.6
17.3
25.3
28.4

Value sought for every listed molecule: Produced peptide.
1. N[C@@H](CO)C(=O)N[C@@H](Cc1ccccc1)C(=O)O
2. NC(N)=NCCC[C@H](N)C(=O)N[C@@H](CO)C(=O)O [L-Arg-L-Ser] (H-Arg-Ser-OH)
3. NCC(=O)N[C@@H](CO)C(=O)O [Gly-L-Ser] (H-Gly-Ser-OH)

Response:
[4.3, 2.2, 53.8]
